Molecular target: CosR (Campylobacter jejuni) (UniProt A0A3H9R6A1)
Test: fluorescence polarization
Details: FP: 10 mM PBS pH 7.4, 5 nM fluoresceinated DNA, 1 ug poly(dI-dC), 25 C
Parameter Measured: pKd
Remember the convention: pKd equals -log10 of concentration in molar.

{"columns": ["Sequence String", "pKd"],
 "data": [
  ["AATTAAGATATTATTAACCAA (double strand) [DNA2 (fluorescein)]", 8.60]
]}

We next turn to a different sequence, shown below.
In: I am curious: what pKd value has been reported for TATTAACCAAAATTAAGATAT (double strand) [DNA1 (fluorescein)] ?
Out: 8.35
